B1: ZNF8 (parent)
chain: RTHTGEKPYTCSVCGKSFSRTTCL

- Variants of: B1
- testProtocol: protein stability index of a GFP-peptide fusion (GPS, HEK-293T) (PSI 1-6); higher = more stable;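 note: lentivirally expressed fusions sorted by FACS into six bins by GFP to DsRed ratio, PSI derived from sequencing read proportions per bin multiplied by bin number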
- conditionContext: c terminus: a fixed tail appended
Assignment: determine reported protein stability index for the given variants.

Dear colleague, please send me the reported protein stability index for RTHTGEPPYTCSVCGKSFSRTTCL when you can.
2.96

Dear colleague, please send me the reported protein stability index for RTNTGEKPYTCSVCGKSFSRTTCL when you can.
2.72

Dear colleague, please send me the reported protein stability index for RTHTGEKPYTCSVCGKSFSRTTCC when you can.
4.72

Dear colleague, please send me the reported protein stability index for RTHTNEKPYTCSVCGKSFSRTTCL when you can.
2.66

Dear colleague, please send me the reported protein stability index for RTHTGEKPYTCSVCGKSFSFTTCL when you can.
2.15

Dear colleague, please send me the reported protein stability index for RTHTGEKPYTCSVCGKSFSRTTKL when you can.
2.28

Dear colleague, please send me the reported protein stability index for RMHTGEKPYTCSVCGKSFSRTTCL when you can.
2.39

Dear colleague, please send me the reported protein stability index for RTSTGEKPYTCSVCGKSFSRTTCL when you can.
2.66

Dear colleague, please send me the reported protein stability index for RTHTGEKPYNCSVCGKSFSRTTCL when you can.
2.2

Dear colleague, please send me the reported protein stability index for RTHTGQKPYTCSVCGKSFSRTTCL when you can.
2.06

Dear colleague, please send me the reported protein stability index for RTHTIEKPYTCSVCGKSFSRTTCL when you can.
3.05

Dear colleague, please send me the reported protein stability index for RTHTGEKPYTCSVCGKSFSMTTCL when you can.
2.18

Dear colleague, please send me the reported protein stability index for RTHTGEKPYTCSVTGKSFSRTTCL when you can.
2.46

Dear colleague, please send me the reported protein stability index for RTHTGHKPYTCSVCGKSFSRTTCL when you can.
2.48

Dear colleague, please send me the reported protein stability index for RTHTGEKPYTCSVCGKGFSRTTCL when you can.
1.73

Dear colleague, please send me the reported protein stability index for RTHTGEKPYTCSVCGKSFSKTTCL when you can.
2.76

Dear colleague, please send me the reported protein stability index for RTHTGEKPYTCHVCGKSFSRTTCL when you can.
2.41

Dear colleague, please send me the reported protein stability index for RYHTGEKPYTCSVCGKSFSRTTCL when you can.
2.07

Dear colleague, please send me the reported protein stability index for RTHTGEKPYTCSVCGKTFSRTTCL when you can.
2.63

Dear colleague, please send me the reported protein stability index for RTHTGEKPTTCSVCGKSFSRTTCL when you can.
2.59

Dear colleague, please send me the reported protein stability index for RTHTGEKPYTCSVCSKSFSRTTCL when you can.
1.87

Dear colleague, please send me the reported protein stability index for RTHMGEKPYTCSVCGKSFSRTTCL when you can.
2.16

Dear colleague, please send me the reported protein stability index for RTHTGEKPYTCSVCGKSFSNTTCL when you can.
2.76

Dear colleague, please send me the reported protein stability index for RCHTGEKPYTCSVCGKSFSRTTCL when you can.
3.48

Dear colleague, please send me the reported protein stability index for RTHTGEKPITCSVCGKSFSRTTCL when you can.
2.59

Dear colleague, please send me the reported protein stability index for RTHTGEKPYTCMVCGKSFSRTTCL when you can.
2.34

Dear colleague, please send me the reported protein stability index for RTHTGEKVYTCSVCGKSFSRTTCL when you can.
2.59

Dear colleague, please send me the reported protein stability index for RTHTGEKPYTCSSCGKSFSRTTCL when you can.
2.56
